// reported pIC50 for each item listed
system.name: human PD-1 / PD-L1-Ig binding on Jurkat cell line over-expressing human PD-1 (Jurkat-PD-1) (Homo sapiens, UniProt Q15116)
Construct: expressed in transfected cells; host or cells: Jurkat
Sequence (Q15116 25-288): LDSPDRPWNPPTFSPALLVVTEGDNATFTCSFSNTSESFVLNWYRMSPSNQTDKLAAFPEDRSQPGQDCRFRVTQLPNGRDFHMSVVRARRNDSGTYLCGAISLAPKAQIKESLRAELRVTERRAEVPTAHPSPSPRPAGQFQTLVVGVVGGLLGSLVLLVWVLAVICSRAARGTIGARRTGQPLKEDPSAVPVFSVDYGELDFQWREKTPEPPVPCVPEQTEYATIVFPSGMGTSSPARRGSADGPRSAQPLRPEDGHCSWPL
run.description: Jurkat-PD-1 Cell Binding High-Content Screening Assay (CBA)
Format: cell-based
test.settings: Jurkat-PD-1 cells, PE-labeled PD-L1-Ig 20 nM final; read-out: Jurkat HPD1_PDL1 IC50
Experimental: Example 3. Jurkat-PD-1 Cell Binding High-Content Screening Assay (CBA) Jurkat-PD-1 Cell Binding High-Content Screening Assay (CBA). Phycoerythrin (PE) was covalently linked to the Ig epitope tag of human PD-L1-Ig and fluorescently-labeled PD-L1-Ig was used for binding studies with a Jurkat cell line over-expressing human PD-1 (Jurkat-PD-1). Briefly, 8×10^3 Jurkat-hPD-1 cells were seeded into 384 well plates in 20 μl of DMEM supplemented with 10% fetal calf serum. […]
Where a SMILES comes first, the peptide text is derived from it. Bridges are numbered along the chain shown (N, C = ends). [ ]: non-standard residue; d: D form. Bip = N[C@@H](Cc1ccc(-c2ccccc2)cc1)C(=O)O; Orn = NCCC[C@H](N)C(=O)O; Dab = NCC[C@H](N)C(=O)O; Dap = NC[C@H](N)C(=O)O
// pIC50: -log10(molar conc.)

A selection of reference data follows.
Cc1cccc(C[C@@H]2NC(=O)[C@H](CC(=O)O)NC(=O)[C@H](Cc3ccncc3)NC(=O)[C@H](CN)NC(=O)CSC[C@@H](C(=O)N[C@@H](C)C(N)=O)NC(=O)[C@H]([C@@H](C)O)NC(=O)[C@H](C(C)C)NC(=O)[C@H](CC3CCCCC3)NC(=O)[C@H](Cc3cnc[nH]3)NC(=O)[C@@H](CC(C)C)NC(=O)[C@H](CCCN)NC(=O)[C@H](C(C)C)NC(=O)[C@H](Cc3ccc(-c4ccccc4)cc3)NC(=O)[C@H](C(C)C)NC2=O)c1 [Compound 1583] ... 7.70
CCC(C)[C@@H]1NC(=O)[C@H](Cc2ccc(-c3ccccc3)cc2)NC(=O)[C@H](C(C)C)NC(=O)[C@H](Cc2cccc(C)c2)NC(=O)[C@H](CC(=O)O)NC(=O)[C@H](Cc2ccc(C(=O)O)cc2)NC(=O)[C@H](CCCNC(=N)N)NC(=O)CSC[C@@H](C(=O)N[C@@H](C)C(N)=O)NC(=O)[C@H](C(C)O)NC(=O)[C@H](C(C)C)NC(=O)[C@H](CC2CCCCC2)NC(=O)[C@H](CCN)NC(=O)[C@@H](CC(C)C)NC(=O)[C@H](CCCN)NC1=O (some centres unmarked) [Compound 2538] ... 8.01
CC[C@H](C)[C@@H]1NC(=O)[C@H](Cc2ccc(-c3ccccc3)cc2)NC(=O)[C@H](C(C)C)NC(=O)[C@H](Cc2c[nH]c3ccccc23)NC(=O)[C@H](CC(=O)O)NC(=O)[C@H](Cc2ccc(O)cc2)NC(=O)[C@H](CN)NC(=O)CSC[C@@H](C(=O)N[C@@H](C)C(N)=O)NC(=O)[C@H]([C@@H](C)O)NC(=O)[C@H](C(C)C)NC(=O)[C@H](CC(C)C)NC(=O)[C@H](CCN)NC(=O)[C@@H](CC(C)C)NC(=O)[C@H](CCCN)NC1=O [Compound 1056] ({CH2CO}-[Dap]YDWV[Bip]I[Orn][dL][Dab]LVTCA-NH2; thioether N-14) ... 8.07
CCCC[C@H]1NC(=O)[C@H](CCCN)NC(=O)[C@H](CCC(=O)O)NC(=O)[C@H](Cc2ccc(-c3ccccc3)cc2)NC(=O)[C@H](C(C)C)NC(=O)[C@H](Cc2c[nH]c3ccccc23)NC(=O)[C@H](CC(=O)O)NC(=O)[C@H](Cc2ccc(C(=O)O)cc2)NC(=O)[C@H](Cc2ccncc2)NC(=O)CSC[C@@H](C(=O)N[C@@H](C)C(N)=O)NC(=O)[C@H]([C@@H](C)O)NC(=O)[C@H](C(C)C)NC(=O)[C@H](CC2CCCCC2)NC(=O)[C@H](CCN)NC1=O [Compound 1450] ... 8.12

We next turn to a different molecule, shown below.
Which pIC50 value belongs to Cc1cccc(C[C@@H]2NC(=O)[C@H](CC(=O)O)NC(=O)[C@H](Cc3ccc(C(=O)O)cc3)NC(=O)[C@H](Cc3ccc(OCC(=O)O)cc3)NC(=O)CSC[C@@H](C(=O)N[C@@H](C)C(N)=O)NC(=O)[C@H]([C@@H](C)O)NC(=O)[C@H](C(C)C)NC(=O)[C@H](CC3CCCCC3)NC(=O)[C@H](CCN)NC(=O)[C@@H](CC(C)C)NC(=O)[C@H](CCCN)NC(=O)[C@H](CCN)NC(=O)[C@H](Cc3ccc(-c4ccccc4)cc3)NC(=O)[C@H](C(C)C)NC2=O)c1 [Compound 1415] ?
7.86
